# TARGET DESC: HSA (Homo sapiens, UniProt P0DUB6)
# Sequence (P0DUB6 16-511): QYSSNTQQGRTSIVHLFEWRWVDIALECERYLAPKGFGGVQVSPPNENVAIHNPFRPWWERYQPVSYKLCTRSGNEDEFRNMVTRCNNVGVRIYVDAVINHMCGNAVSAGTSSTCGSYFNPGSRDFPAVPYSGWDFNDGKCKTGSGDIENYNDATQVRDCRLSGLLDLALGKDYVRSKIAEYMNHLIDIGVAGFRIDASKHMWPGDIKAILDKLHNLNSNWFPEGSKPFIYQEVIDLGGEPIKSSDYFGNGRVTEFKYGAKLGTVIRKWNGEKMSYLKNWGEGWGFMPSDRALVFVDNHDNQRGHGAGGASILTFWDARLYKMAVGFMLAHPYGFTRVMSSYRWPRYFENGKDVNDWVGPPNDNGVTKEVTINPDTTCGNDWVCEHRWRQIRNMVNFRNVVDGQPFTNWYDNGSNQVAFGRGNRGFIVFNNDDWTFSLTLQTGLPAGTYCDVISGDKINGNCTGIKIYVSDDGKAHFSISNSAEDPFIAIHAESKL
# TEST SUMMARY: Binding mode (distribution of hydrolysis products) by HPLC
# Format: biochemical
# CONDITION: share of product G4P
OBSERVATION TYPE: Hydrolysis product G4P (%)
Enter your answer as a number in %; do not include the unit.

Field: example entries. Status: answers known.
O=[N+]([O-])c1ccc(O[C@H]2O[C@H](CO)[C@@H](O[C@H]3O[C@H](CO)[C@@H](O[C@H]4O[C@H](CO)[C@@H](O[C@H]5O[C@H](CO)[C@@H](O)[C@H](O)[C@H]5O)[C@H](O)[C@H]4O)[C@H](O)[C@H]3O)[C@H](O)[C@H]2O)cc1 [Substrate G4P]	0
O=[N+]([O-])c1ccc(O[C@H]2O[C@H](CO)[C@@H](O[C@H]3O[C@H](CO)[C@@H](O[C@H]4O[C@H](CO)[C@@H](O[C@H]5O[C@H](CO)[C@@H](O[C@H]6O[C@H](CO)[C@@H](O[C@H]7O[C@H](CO)[C@@H](O[C@H]8O[C@H](COCc9ccccc9)[C@@H](O)[C@H](O)[C@H]8O)[C@H](O)[C@H]7O)[C@H](O)[C@H]6O)[C@H](O)[C@H]5O)[C@H](O)[C@H]4O)[C@H](O)[C@H]3O)[C@H](O)[C@H]2O)cc1	45

Qu. Requested field: Hydrolysis product G4P. Item: O=[N+]([O-])c1ccc(O[C@H]2O[C@H](CO)[C@@H](O[C@H]3O[C@H](CO)[C@@H](O[C@H]4O[C@H](CO)[C@@H](O[C@H]5O[C@H](CO)[C@@H](O[C@H]6O[C@H](CO)[C@@H](O[C@H]7O[C@H](CO)[C@@H](O[C@H]8O[C@@H]9COC(c%10ccccc%10)O[C@H]9[C@H](O)[C@H]8O)[C@H](O)[C@H]7O)[C@H](O)[C@H]6O)[C@H](O)[C@H]5O)[C@H](O)[C@H]4O)[C@H](O)[C@H]3O)[C@H](O)[C@H]2O)cc1 (stereo partly drawn)
Ans. 15

Qu. Requested field: Hydrolysis product G4P. Item: `O=[N+]([O-])c1ccc(O[C@H]2O[C@H](CO)[C@@H](O[C@H]3O[C@H](CO)[C@@H](O[C@H]4O[C@H](CO)[C@@H](O[C@H]5O[C@H](CO)[C@@H](O[C@H]6O[C@H](COCc7ccccc7)[C@@H](O)[C@H](O)[C@H]6O)[C@H](O)[C@H]5O)[C@H](O)[C@H]4O)[C@H](O)[C@H]3O)[C@H](O)[C@H]2O)cc1`
Ans. 0

Qu. Requested field: Hydrolysis product G4P. Item: O=[N+]([O-])c1ccc(O[C@H]2O[C@H](CO)[C@@H](O[C@H]3O[C@H](CO)[C@@H](O[C@H]4O[C@H](CO)[C@@H](O[C@H]5O[C@H](CO)[C@@H](O[C@H]6O[C@H](CO)[C@@H](O[C@H]7O[C@@H]8COC(c9ccccc9)O[C@H]8[C@H](O)[C@H]7O)[C@H](O)[C@H]6O)[C@H](O)[C@H]5O)[C@H](O)[C@H]4O)[C@H](O)[C@H]3O)[C@H](O)[C@H]2O)cc1 (stereo partly drawn)
Ans. 0

Qu. Requested field: Hydrolysis product G4P. Item: O=[N+]([O-])c1ccc(O[C@H]2O[C@H](CO)[C@@H](O[C@H]3O[C@H](CO)[C@@H](O[C@H]4O[C@H](CO)[C@@H](O[C@H]5O[C@H](CO)[C@@H](O[C@H]6O[C@H](CO)[C@@H](O)[C@H](O)[C@H]6O)[C@H](O)[C@H]5O)[C@H](O)[C@H]4O)[C@H](O)[C@H]3O)[C@H](O)[C@H]2O)cc1 [Substrate G5P]
Ans. 0
